Values were extracted from patent US20180030149A1.

Measured koff, listed per entry.
# experimental-target: T1, recombinant human ErbB3 monomeric protein (cleaved rhErbB3) (human, UniProt P21860 20-643, limits assumed)
# T1 construct: Monomer made by protease cleavage of the Fc fusion; also called Monomeric ErbB3
# assay-procedure: SPR Biacore 37 C; supernatant antibody captured on anti-human Fc, cleaved rhErbB3 injected
Kindly answer with a numeric value in s⁻¹, unit omitted.

Sh24C05-16 (antibody, human IgG1, kappa, V domains shown, Humanized, human IgG1/kappa) VH: EVQLLESGGGLVQPGGSLRLSCAASGFTFSDYAMSWVRQAPGKGLEWVSTISDGGTYTYYPDNVKGRFTISRDNSKNTLYLQMNSLRAEDTAVYYCAREWGDYDGFDYWGQGTLVTVSS VL: DIQMTQSPSSLSASVGDRVTITCRASQEISGYLSWLQQKPGGAIKRLIYAASTLDSGVPSRFSGSGSGSDYTLTISSLQPEDFATYYCLQYDSYPYTFGQGTKLEIKR; 0.000404

Now consider the entry below.
query: Return reported koff; argument: Sh24C05-39 (antibody, human IgG1, kappa, V domains shown, Humanized, human IgG1/kappa) VH: EVQLVESGGGLVKPGGSLRLSCAASGFTFSDYAMSWVRQAPGKGLEWVSTISDGGTYTYYPDNVKGRFTISRDNAKNSLYLQMNSLRAEDTAVYYCAREWGDYDGFDYWGQGTLVTVSS VL: DIQLTQSPSFLSASVGDRVTITCRASQEISGYLSWYQQKPGKAPKLLIYAASTLDSGVPSRFSGSGSGTEFTLTISSLQPEDFATYYCLQYDSYPYTFGQGTKLEIKR
result: 0.00967
